System: Parabacteroides merdae
Test: Antimicrobial activity against Bacteroides merdae isolates by agar dilution method
Assay type: functional
parameter.measured: MIC

1) COC1(NC(=O)Cc2cccs2)C(=O)N2C(C(=O)O)=C(COC(N)=O)CS[C@@H]21 (single isomer, unassigned) = 17.6 µg/mL
2) CN(C)c1cc(NC(=O)CNC(C)(C)C)c(O)c2c1C[C@H]1C[C@H]3[C@H](N(C)C)C(O)=C(C(N)=O)C(=O)[C@@]3(O)C(O)=C1C2=O = 1.51 µg/mL
3) C[C@@H](O)[C@H]1C(=O)N2C(C(=O)O)=C(SCCNC=N)C[C@H]12 [IMIPENEM ANHYDROUS] = 0.35 µg/mL
4) C[C@@H](O)[C@H]1C(=O)N2C(C(=O)O)=C(S[C@@H]3CN[C@H](C(=O)N(C)C)C3)[C@H](C)[C@H]12 = 0.4 µg/mL
5) CCC[C@@H]1C[C@@H](C(=O)NC([C@H](C)Cl)[C@H]2O[C@H](SC)[C@H](O)[C@@H](O)[C@H]2O)N(C)C1 (single isomer, unassigned) = 3.63 µg/mL
6) COc1c(N2C[C@@H]3CCCN[C@@H]3C2)c(F)cc2c(=O)c(C(=O)O)cn(C3CC3)c12 = 3.85 µg/mL
7) C[C@@H](O)[C@H]1C(=O)N2C(C(=O)O)=C(SC3CNC(C(=O)Nc4cccc(C(=O)O)c4)C3)[C@H](C)[C@H]12 (single isomer, unassigned) = 1.03 µg/mL

Every entry's value here was drawn from ChEMBL document CHEMBL1143824.
